FYI, the data here is from patent US7119182.

Molecular target: T1, human thrombin receptor (human, UniProt P25116 42-425)
T1 chain: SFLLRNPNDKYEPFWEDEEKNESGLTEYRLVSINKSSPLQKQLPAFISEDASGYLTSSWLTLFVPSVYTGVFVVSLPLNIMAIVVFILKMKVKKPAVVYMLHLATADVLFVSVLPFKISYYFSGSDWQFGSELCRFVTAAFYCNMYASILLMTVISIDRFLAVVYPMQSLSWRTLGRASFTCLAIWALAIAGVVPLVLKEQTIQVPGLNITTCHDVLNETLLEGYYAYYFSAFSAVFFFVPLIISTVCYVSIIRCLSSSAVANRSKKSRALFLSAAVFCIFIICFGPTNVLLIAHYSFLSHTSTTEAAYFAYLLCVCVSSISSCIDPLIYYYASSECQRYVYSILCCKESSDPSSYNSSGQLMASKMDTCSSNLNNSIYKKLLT
Test: cell-based or functional assay
Square brackets hold non-standard residues; d marks the D form. Ends that are not written are not given here. Cha = N[C@@H](CC1CCCCC1)C(=O)O
Exercise: for every item that follows, state its recorded EC50 (concentration required to elicit a 50% maximal aggregation), platelet aggregation.

Take a look at these entries with their results.
| BINDER | ASSAY RESULT |
| --- | --- |
| SFF[Cha]RA-NH2 (N-terminus assumed; SMILES C[C@H](NC(=O)[C@H](CCCNC(=N)N)NC(=O)[C@H](CC1CCCCC1)NC(=O)[C@H](Cc1ccccc1)NC(=O)[C@H](Cc1ccccc1)NC(=O)[C@@H](N)CO)C(N)=O) [SFF(Cha)RA-NH2] | 1.4 µM |
| SFLLRNPNDK | 6.3 µM |
| SFLLRNPNDKYE | 6.6 µM |
| XFLLR (desaminoSer at the N-terminus; C-terminal amide (NH2)) [[desaminoSer]-FLLR-NH2] | 920 µM |
| SFPLR-NH2 [SFPLR-NH2] | 22 µM |

Please give EC50 (concentration required to elicit a 50% maximal aggregation), platelet aggregation, item by item, for the list that follows.
1. CFLLR-NH2 [CFLLR-NH2]
2. SFLLLN-NH2 [SFLLLN-NH2]

OUT:
["193 µM", "44.9 µM"]

IN: Sample GFLLR-NH2 [GFLLRNH2] — what was its EC50 (concentration required to elicit a 50% maximal aggregation), platelet aggregation?
OUT: 7.3 µM
